EXPERIMENTAL DETAILS: Drug concentration in mouse after 24 hrs
Type: ADME
MEASUREMENT CONTEXT: in vivo, read-out: Drug uptake
MEASURED ATTRIBUTE: concentration at 24 h (nM)
Provide only the numeric value, understood in nM.

For record CC1(C)[C@H](Nc2c(C(N)=O)cnn3cc(-c4ccccc4)cc23)CC[C@]1(C)N the listed concentration at 24 h is 230

----------
EXPERIMENTAL DETAILS: Half life in BALB/c mouse at 2 mg/kg, iv
Type: ADME, organism-based
MEASUREMENT CONTEXT: in vivo
MEASURED ATTRIBUTE: half-life (h)
Unit h implied. Number only.

// half-life lookup, compound = COc1ccc(-c2cc3c(N[C@@H]4CC[C@](C)(N)C4(C)C)c(C(N)=O)cnn3c2)cn1 , result: 6.5

----------
TEST SYSTEM: UniProt O60674
Sequence (O60674 whole entry): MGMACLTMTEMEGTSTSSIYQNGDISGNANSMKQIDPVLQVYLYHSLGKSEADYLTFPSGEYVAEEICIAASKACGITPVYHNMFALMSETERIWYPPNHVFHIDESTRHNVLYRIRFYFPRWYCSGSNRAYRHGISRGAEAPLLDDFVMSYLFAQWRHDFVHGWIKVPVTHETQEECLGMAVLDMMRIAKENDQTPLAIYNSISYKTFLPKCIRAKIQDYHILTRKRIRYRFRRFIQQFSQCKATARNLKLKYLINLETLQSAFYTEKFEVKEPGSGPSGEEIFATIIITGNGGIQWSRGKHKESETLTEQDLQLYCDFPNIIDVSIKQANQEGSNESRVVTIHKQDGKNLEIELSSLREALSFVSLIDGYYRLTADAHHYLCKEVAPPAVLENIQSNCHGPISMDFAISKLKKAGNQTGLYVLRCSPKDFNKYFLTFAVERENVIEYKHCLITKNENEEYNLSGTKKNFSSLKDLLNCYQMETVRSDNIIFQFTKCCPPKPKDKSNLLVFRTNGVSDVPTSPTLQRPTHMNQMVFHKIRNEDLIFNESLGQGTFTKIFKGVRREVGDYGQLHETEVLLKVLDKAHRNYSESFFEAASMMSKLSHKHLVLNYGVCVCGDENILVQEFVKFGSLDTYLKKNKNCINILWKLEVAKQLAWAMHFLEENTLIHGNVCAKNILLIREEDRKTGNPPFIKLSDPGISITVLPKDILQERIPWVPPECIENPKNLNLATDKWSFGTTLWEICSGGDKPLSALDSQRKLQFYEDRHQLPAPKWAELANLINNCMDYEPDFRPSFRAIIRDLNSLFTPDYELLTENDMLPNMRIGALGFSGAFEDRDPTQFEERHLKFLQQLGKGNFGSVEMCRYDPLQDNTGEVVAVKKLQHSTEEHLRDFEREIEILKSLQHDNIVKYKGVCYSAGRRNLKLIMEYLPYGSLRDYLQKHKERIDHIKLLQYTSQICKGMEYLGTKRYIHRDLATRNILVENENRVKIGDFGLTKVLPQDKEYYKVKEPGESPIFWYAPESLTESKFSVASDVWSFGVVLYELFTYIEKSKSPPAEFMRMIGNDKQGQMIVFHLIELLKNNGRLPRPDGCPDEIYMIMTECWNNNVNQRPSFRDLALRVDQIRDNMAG
EXPERIMENTAL DETAILS: Inhibition of GST-tagged JAK2 (unknown origin) after 3 hrs by Caliper assay
MEASURED ATTRIBUTE: pIC50
The read-out pIC50 is expressed as -log10 of concentration in moles per litre.

Form: molecule = Cc1ccc(-c2cc3c(N[C@@H]4CC[C@](C)(N)C4(C)C)c(C(N)=O)cnn3c2)cn1 ; pIC50 = 7.66

Summary for this molecule, CC1(C)[C@H](Nc2c(C(N)=O)cnn3cc(-c4ccncc4F)cc23)CC[C@]1(C)N : pIC50 is 7.15

CC1(C)[C@H](Nc2c(C(N)=O)cnn3cc(-c4ccccc4Cl)cc23)CC[C@]1(C)N yielded pIC50 of 7.57

The reported value for COc1cccc(-c2cc3c(N[C@@H]4CC[C@](C)(N)C4(C)C)c(C(N)=O)cnn3c2)c1 in terms of pIC50 is 7.82

Sure, the documented pIC50 for Cc1cccc(-c2cc3c(N[C@@H]4CC[C@](C)(N)C4(C)C)c(C(N)=O)cnn3c2)c1 is 7.96

The value of pIC50 measured for the molecule CC1(C)[C@H](Nc2c(C(N)=O)cnn3cc(-c4ccc(C#N)cc4)cc23)CC[C@]1(C)N turned out to be 8.14

pIC50 for CC1(C)[C@H](Nc2c(C(N)=O)cnn3cc(-c4cccc(Cl)c4)cc23)CC[C@]1(C)N is 7.77

CC1(C)[C@H](Nc2c(C(N)=O)cnn3cc(-c4ccc(C#N)nc4)cc23)CC[C@]1(C)N has a reported pIC50 of 7.54

The recorded pIC50 for CC1(C)[C@H](Nc2c(C(N)=O)cnn3cc(-c4cncnc4)cc23)CC[C@]1(C)N is 6.80

----------
EXPERIMENTAL DETAILS: Half life in human liver microsomes
Assay type: ADME, microsome
MEASURED ATTRIBUTE: half-life

The reported half-life of the compound COc1ccc(-c2cc3c(N[C@@H]4CC[C@](C)(N)C4(C)C)c(C(N)=O)cnn3c2)cn1 was > 1.5 h

----------
EXPERIMENTAL DETAILS: Half life in BALB/c mouse at 10 mg/kg, po
Format: ADME, organism-based
MEASUREMENT CONTEXT: in vivo
MEASURED ATTRIBUTE: half-life (h)
Value expressed in h; do not type the unit.

The recorded half-life for COc1ccc(-c2cc3c(N[C@@H]4CC[C@](C)(N)C4(C)C)c(C(N)=O)cnn3c2)cn1 is 10.2

Origin of values: ChEMBL document CHEMBL4052645
